Substrate: pcPET (post-consumer)
measurement-description: Proxy for plastic degradation [Released monomer concentration (HPLC/LC-MS) (TPA+MHET+BHET)]
experimental-setup: pH 9; 40 °C; 24 h
Class boundaries, taken from values of Proxy for plastic degradation, are as follows: I: < 300 µM; II: ≥ 300 µM and < 800 µM; III: ≥ 800 µM

Use the examples below as a reference point.
{"protein": "unnamed (protein) MLSFLRSTGRPERRRASLPALLLFTAALVASGLTAAPAAQAADNPYQRGPDPTNASIEAATGPFAVGTQPIVGASGFGGGQIYYPTDTSQTYGAVVIVPGFISVWAQLNWLGPRLASQGFVVIGIETSVITDLPDPRGDQALAALDWATTRSPVASRIDRTRLAAAGHSMGGGGLRRAALQRPSLKAIVGMAPWNGERNWSAVTVPTLFFGGSSDAVASPNDHAKPFYNSITRAEKDYIELRNADHFFPTSANTTMAKYFISWLKRWVDNDTRYTQFLCPGPSTGLFAPVSASMNTCPF", "assigned-class": "I"}
{"protein": "unnamed (protein) MLSFLRSTGRPERRRASLPALLLFTAALVASGLTAAPAAQAADNPYQRGPDPTNASIEAATGPFAVGTQPIVGASGFGGGQIYYPTDTSQTYGAVVIVPGFISVWAQLNWLGPRLASQGFVVIGIETSVITDLPDPRGDQALAALDWATTRSPVASRIDRTRLAAAGWSMGGGGLRRAACQRPSLKAIVGMAPWNGERNWSCVTVPTLFFGGSSDAVASPNDHAKPFYNSITRAEKDYIELRNADHFFPTSANTTMAKYFISWLKRWVDNDTRYTQFLCPGPSTGLFAPVSASMNTCPF", "assigned-class": "III"}
{"protein": "unnamed (protein) MLSFLRSTGRPERRRASLPALLLFTAALVASGLTAAPAAQAADNPYQRGPDPTNASIEAATGPFAVGTQPIVGASGFGGGQIYYPTDTSQTYGAVVIVPGFISVWAQLNWLGPRLASQGFVVIGIETSVITDYPDPRGDQALAALDWATTRSPVASRIDRTRLAAAGWSMGGGGLRRAALQRPSLKAIVGMAPWNGERNWSAVTVPTLFFGGSSDAVASPNDHAKPFYNSITRAEKDYIELRNADHFFPTSANTTMAKYFISWLKRWVDNDTRYTQFLCPGPSTGLFAPVSASMNTCPF", "assigned-class": "II"}
{"protein": "unnamed (protein) MLSFLRSTGRPERRRASLPALLLFTAALVASGLTAAPAAQAADNPYQRGPDPTNASIEAATGPFAVGTQPIVGASGFGGGQIYYPTDTSQTYGAVVIVPGFISVWASLNWLGPRLASQGFVVIGIETSVITDLPDPRGDQALAALDWATTRSPVASRIDRTRLAAAGWSMGGGGLRRAALQRPSLKAIVGMAPWNGERNWSAVTVPTLFFGGSSDAVASPNDHAKPFYNSITRAEKDYIELRNADHFFPTSANTTMAKYFISWLKRWVDNDTRYTQFLCPGPSTGLFAPVSASMNTCPF", "assigned-class": "II"}
{"protein": "unnamed (protein) MLSFLRSTGRPERRRASLPALLLFTAALVASGLTAAPAAQAADNPYQRGPDPTNASIEAATGPFAVGTQPIVGASGFGGGQIYYPTDTSQTYGAVVIVPGFISVWAQLAWLGPRLASQGFVVIGIETSVITDLPDPRGDQALAALDWATTRSPVASRIDRTRLAAAGWSMGGGGLRRAACQRPSLKAIVGMAPWNGERNWSCVTVPTLFFGGSSDAVASPNDHAKPFYNSITRAEKDYIELCNADHFFPTSANTTMAKYFISWLKRWVDNDTRYTQFLCPGPSTGLFAPVCASMNTCPF", "assigned-class": "III"}
{"protein": "unnamed (protein) MLSFLRSTGRPERRRASLPALLLFTAALVASGLTAAPAAQAADNPYQRGPDPTNASIEAATGPFAVGTQPIVGASGFGGGQIYYPTDTSQTYGAVVIVPGFISVWAQLNWLGPRLASQGFVVIGIETSVITDLPDPRGDQALAALDWATTRSPVASRIDRTRLAAAGWSMGGGGLRRAALQRPSLKAIVGMAPWNGERNWSAVTVPTLFFGGSSDAVASPNDHAKPFYNSITAAEKDYIELRNADHFFPTSANTTMAKYFISWLKRWVDNDTRYTQFLCPGPSTGLFAPVSASMNTCPF", "assigned-class": "II"}
{"protein": "unnamed (protein) MLSFLRSTGRPERRRASLPALLLFTAALVASGLTAAPAAQAADNPYQRGPDPTNASIEAATGPFAVGTQPIVGASGFGGGQIYYPTDTSQTYGAVVIVPGFISVWAQLNWLGPRLASQGFVVIGIETSVITDLPDPRGDQALAALDWATTRSPVASRIDRTRLAAAGWSMGGGGLRRAALQRPSLKAIVGMAPWNGERNWSAVTVPTLFFGGSSDAVASPNDHAKPFYNSITRAEKDYIELRNADHFFPNSANTTMAKYFISWLKRWVDNDTRYTQFLCPGPSTGLFAPVSASMNTCPF", "assigned-class": "I"}

From here, focus on the item given below.
Query: For this protein, which bin applies? unnamed (protein) MLSFLRSTGRPERRRASLPALLLFTAALVASGLTAAPAAQAADNPYQRGPDPTNASIEAATGPFAVGTQPIVGASGFGGGQIYYPTDTSQTYGAVVIVPGFISVWAQLAWLGPRLASQGFVVIGIETSTITDLPDPRGDQALAALDWATTRSPVRSRIDRTRLAAAGWSMGGGGLRRAACQRPSLKAIVGMAPWNTEKNWSCVTVPTLFFGGSSDAVASPNDHAKPFYNSITRAEKDYIELCNADHFFPTSANTTMAKYFISWLKRWVDNDTRYTQFLCPGPSTGLFAPVCASMNTCPF
Reply: III

# credit: the PETadex activity labels (doi:10.1038/s41467-023-40233-w)
